Assay: In vivo pharmacokinetic analysis
Settings: ICR, mouse; mice, 5 mg/kg, oral gavage in 0.5% CMC, plasma
EXPERIMENTAL_READOUT: half-life (h)

Known half-life results, listed for orientation:
COMPOUND | EXPERIMENTAL_VALUE
COC1=CC(=O)N(NC(=O)/C=C\n2cnc(-c3cc(C(F)(F)F)cc(C(F)(F)F)c3)n2)CC1 [Compound 87] | 2.7
O=C(/C=C\n1cnc(-c2cc(C(F)(F)F)cc(C(F)(F)F)c2)n1)NN1CCCC1=O [Compound 2] | 4.58
O=C(/C=C\n1cnc(-c2cc(C(F)(F)F)cc(C(F)(F)F)c2)n1)NN1CCC2(CC2)C1=O [Compound 18] | 3.12
O=C(/C=C\n1cnc(-c2cc(C(F)(F)F)cc(C(F)(F)F)c2)n1)NN1CCCCC1=O [Compound 3] | 3.31
O=C(/C=C\n1cnc(-c2cc(C(F)(F)F)cc(C(F)(F)F)c2)n1)NN1CCOCC1=O [Compound 38] | 4.53
CC1=C(C)C(=O)N(NC(=O)/C=C\n2cnc(-c3cc(C(F)(F)F)cc(C(F)(F)F)c3)n2)C1 [Compound 5] | 4.53
COC1=CC(=O)N(NC(=O)/C=C\n2cnc(-c3cc(C(F)(F)F)cc(C(F)(F)F)c3)n2)C1 [Compound 79] | 3.42

1: O=C(/C=C\n1cnc(-c2cc(C(F)(F)F)cc(C(F)(F)F)c2)n1)NN1C(=O)[C@@H]2CC[C@H]1C2 [Compound 33]
2: O=C(/C=C\n1cnc(-c2cc(C(F)(F)F)cc(C(F)(F)F)c2)n1)NNc1cnccn1 [KPT-330, Selinexor, reference compound]
Would you mind telling me which has the lower recorded half-life between 1 and 2 ? Field: selected label. Fill in the label of the entry you choose.
2
(2: 2.66 h, 1: 4.36 h)

* * *

System: MDA-MB-231 cells (breast cancer cells)
Test: Cancer cell proliferation assay, MDA-MB-231
Format: cell-based
Conditions: Homo sapiens, MDA-MB-231, 72 h; three days incubation, absorbance 570 nm; read-out: IC50 (μM) MDA-MB-231
EXPERIMENTAL_READOUT: IC50 (µM)

Known IC50 results, listed for orientation:
COMPOUND | IC50 (µM)
CC1=CC(=O)N(NC(=O)/C=C\n2cnc(-c3cc(C(F)(F)F)cc(C(F)(F)F)c3)n2)CC1 [Compound 89] | 0.277
O=C(/C=C\n1cnc(-c2cc(C(F)(F)F)cc(C(F)(F)F)c2)n1)Nn1ccccc1=O [Compound 56] | 0.382
COC1=CC(=O)N(NC(=O)/C=C\n2cnc(-c3cc(C(F)(F)F)cc(C(F)(F)F)c3)n2)CC1 [Compound 87] | 0.021
CC1=C(C)C(=O)N(NC(=O)/C=C\n2cnc(-c3cc(C(F)(F)F)cc(C(F)(F)F)c3)n2)C1 [Compound 5] | 0.955

a: COCCN1C(=O)CCN1C(=O)/C=C\n1cnc(-c2cc(C(F)(F)F)cc(C(F)(F)F)c2)n1 [Compound 71]
b: O=C(/C=C\n1cnc(-c2cc(C(F)(F)F)cc(C(F)(F)F)c2)n1)NNc1cnccn1 [KPT-330, Selinexor, reference compound]
c: COC1=CC(=O)N(NC(=O)/C=C\n2cnc(-c3cc(C(F)(F)F)cc(C(F)(F)F)c3)n2)C1 [Compound 79]
Ranking field: IC50; order: falling. Give the labels in the order requested.
b, a, c
(b: 0.458 µM, a: 0.245 µM, c: 0.126 µM)
